Biological target: T1, EsCas13d, nuclease-dead (Eubacterium siraeum, UniProt B0MS50, R295A;H300A;R849A;H854A)
T1 sequence: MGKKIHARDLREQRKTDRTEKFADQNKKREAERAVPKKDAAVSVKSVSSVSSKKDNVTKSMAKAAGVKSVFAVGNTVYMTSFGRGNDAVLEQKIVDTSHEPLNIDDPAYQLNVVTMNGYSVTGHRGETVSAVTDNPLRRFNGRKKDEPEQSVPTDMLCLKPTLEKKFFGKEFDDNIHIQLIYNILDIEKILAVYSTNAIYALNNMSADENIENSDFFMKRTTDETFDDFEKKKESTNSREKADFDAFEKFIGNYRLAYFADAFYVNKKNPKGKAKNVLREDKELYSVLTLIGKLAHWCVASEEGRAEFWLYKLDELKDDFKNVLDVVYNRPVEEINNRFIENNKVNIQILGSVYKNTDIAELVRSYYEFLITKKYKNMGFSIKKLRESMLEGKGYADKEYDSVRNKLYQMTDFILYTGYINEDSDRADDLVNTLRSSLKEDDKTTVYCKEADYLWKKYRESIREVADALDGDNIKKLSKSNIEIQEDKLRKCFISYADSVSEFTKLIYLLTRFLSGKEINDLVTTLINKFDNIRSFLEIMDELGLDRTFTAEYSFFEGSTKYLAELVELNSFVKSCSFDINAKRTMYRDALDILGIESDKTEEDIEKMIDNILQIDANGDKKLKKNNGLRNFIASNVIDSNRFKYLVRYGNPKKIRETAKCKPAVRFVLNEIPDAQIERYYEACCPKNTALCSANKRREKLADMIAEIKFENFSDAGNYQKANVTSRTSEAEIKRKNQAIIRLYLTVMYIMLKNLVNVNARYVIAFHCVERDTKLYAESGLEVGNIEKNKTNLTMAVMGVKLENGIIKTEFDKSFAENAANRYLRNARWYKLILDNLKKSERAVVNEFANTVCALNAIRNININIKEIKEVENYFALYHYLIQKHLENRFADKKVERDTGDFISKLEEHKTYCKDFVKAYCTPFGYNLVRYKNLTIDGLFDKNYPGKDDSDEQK
Experiment: crRNA (strand 1, pre-loaded); Mg2+; 40 mM Tris-HCl pH 7.5, 150 mM NaCl, 6 mM MgCl2, 1 mM DTT, 0.1% Tween-20, 0.2 mg/ml BSA; 25 C; 10 min per concentration, then washed
Settings: tags: His6-TwinStrep-SUMO cleaved; N-terminal SNAP kept (SNAP-Surface 488); label: 3' end held by stalled T7 RNA polymerase
RECORDED_ENDPOINT: Kd
Put down the number, then write its unit next to it.

{"BINDER": "target 1 U3C,C6A (mixed) RNA 1: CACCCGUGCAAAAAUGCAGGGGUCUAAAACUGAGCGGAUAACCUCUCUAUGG RNA 2: GGGAAUGGAUCCACAUCUACGAAUUCGUACCAUAGAGAGGUUAUCAGCCCACCGAGAUCGGAAGAGCACACGU", "Kd": "14.2 nM"}
{"BINDER": "target 1 insU 3' of 13 (mixed) RNA 1: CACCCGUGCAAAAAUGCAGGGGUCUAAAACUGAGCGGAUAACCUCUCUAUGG RNA 2: GGGAAUGGAUCCACAUCUACGAAUUCGUACCAUAGAGAGUGUUAUCCGCUCACCGAGAUCGGAAGAGCACACGU", "Kd": "11.4 nM"}

The value of Kd measured for the binder target 2 MT 5'PFS GUG 3'PFS UAU (mixed) RNA 1: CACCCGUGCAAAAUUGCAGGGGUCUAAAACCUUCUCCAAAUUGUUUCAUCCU RNA 2: GGGAAUGGAUCCACAUCUACGAAUUCGUGAGGAUGAAACAAUUUGGAGAAGUAUAGAUCGGAAGAGCACACGU turned out to be 9.5 nM

The value of Kd measured for the binder target 1 MT 5'PFS CAG 3'PFS UUG (mixed) RNA 1: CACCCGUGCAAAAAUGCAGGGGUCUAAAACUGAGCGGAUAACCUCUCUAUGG RNA 2: GGGAAUGGAUCCACAUCUACGAAUUCCAGCCAUAGAGAGGUUAUCCGCUCAUUGAGAUCGGAAGAGCACACGU turned out to be 19.7 nM
